- Organism: Sus scrofa
- Test Name: Inhibition of pig aortic GlcNAc-1P-transferase-mediated […] formation at 50 to 100 ug/ml
Measured Attribute: inhibition (%)

CCC(C)CCCCCC/C=C/C(=O)N[C@H]1[C@H](O[C@H]2O[C@H](CO)[C@@H](O)[C@H](O)[C@H]2NC(C)=O)O[C@H](C[C@H](O)[C@H]2O[C@@H](N3CCC(=O)NC3=O)[C@H](O)[C@@H]2O)[C@H](O)[C@@H]1O (stereo not given in full) : 50
CC(=O)N[C@H]1[C@@H](O[C@@H]2O[C@H](C[C@H](O)[C@H]3O[C@@H](N4CCC(=O)NC4=O)[C@H](O)[C@@H]3O)[C@H](O)[C@H](O)[C@H]2NC(=O)/C=C/CCCCCCC(C)C)O[C@H](CO)[C@@H](O)[C@@H]1O : 50
CC(=O)N[C@H]1[C@@H](O[C@@H]2O[C@H](C[C@H](O)[C@H]3O[C@@H](N4CCC(=O)NC4=O)[C@H](O)[C@@H]3O)[C@H](O)[C@H](O)[C@H]2NC(=O)/C=C/CCCCCCCCC(C)C)O[C@H](CO)[C@@H](O)[C@@H]1O : 50
CCC(C)CCCCCCCC/C=C/C(=O)N[C@H]1[C@H](O[C@H]2O[C@H](CO)[C@@H](O)[C@H](O)[C@H]2NC(C)=O)O[C@H](C[C@H](O)[C@H]2O[C@@H](N3CCC(=O)NC3=O)[C@H](O)[C@@H]2O)[C@H](O)[C@@H]1O (stereo not given in full) : 50
CC(=O)N[C@H]1[C@@H](O[C@@H]2O[C@H](C[C@H](O)[C@H]3O[C@@H](N4CCC(=O)NC4=O)[C@H](O)[C@@H]3O)[C@H](O)[C@H](O)[C@H]2NC(=O)/C=C/CCCCCCCC(C)C)O[C@H](CO)[C@@H](O)[C@@H]1O : 50
